Test: serum pharmacokinetics in wild-type FVB/N mice
Type: in vivo
Conditions: FVB/N (wild-type), mouse, serum, ip, 2 mg/kg
parameter: half-life (min)
Numbers only, in min.

Reported half-life ( COc1ccc2[nH]cc(CCN(C)C)c2c1 [5-MeO-DMT, 5-Methoxy-N,N-dimethyltryptamine] ) = 19.5

Could you now consider this next molecule?
Reported half-life ( CN(C)CCc1c[nH]c2ccc(O)cc12 [Bufotenine, 5-hydroxy-N,N-dimethyltryptamine] ) = 33

====

Exercise: state measured MRT for each of the compounds provided.
Assay: serum pharmacokinetics in wild-type FVB/N mice
Assay type: in vivo
Details: FVB/N (wild-type), mouse, serum, ip, 2 mg/kg
Numbers only, in min.

Reported MRT ( COc1ccc2[nH]cc(CCN(C)C)c2c1 ) = 19.1

Continuing:
Reported MRT ( CN(C)CCc1c[nH]c2ccc(O)cc12 [Bufotenine, 5-hydroxy-N,N-dimethyltryptamine] ) = 54.9

====

Assay: serum pharmacokinetics in Tg-CYP2D6
Assay type: in vivo, mice
Conditions: Tg-CYP2D6 (CYP2D6-humanized), mouse, serum, ip, 20 mg/kg
Exercise: state measured Tmax for each of the compounds provided.
Quick note: unit goes after the number.

Reported Tmax ( COc1ccc2[nH]cc(CCN(C)C)c2c1 ) = 6.3 min

Could you now consider this next compound?
Reported Tmax ( CN(C)CCc1c[nH]c2ccc(O)cc12 [Bufotenine, 5-hydroxy-N,N-dimethyltryptamine] ) = 27.5 min

====

Assay: 5-MeO-DMT depletion and bufotenine formation in human CYP2D6 EM hepatocytes
Conditions: human, CYP2D6 EM hepatocytes, In vitro T1/2, EM hepatocytes 2; 5-MeO-DMT alone, 2 µM
parameter: half-life at 2 µM

Reported half-life at 2 µM ( COc1ccc2[nH]cc(CCN(C)C)c2c1 [5-MeO-DMT, 5-Methoxy-N,N-dimethyltryptamine] ) = 29.9 min

====

Experiment: 5-MeO-DMT depletion and bufotenine formation in human CYP2D6 PM hepatocytes
Details: human, human CYP2D6 PM (poor metabolizer) hepatocytes, In vitro CLint, PM hepatocytes 1; 5-MeO-DMT alone, 2 µM
parameter: hepatocyte CLint at 2 µM (µL/min/1e6 cells)
Numbers only, in µL/min/1e6 cells.

Reported hepatocyte CLint at 2 µM ( COc1ccc2[nH]cc(CCN(C)C)c2c1 [5-MeO-DMT, 5-Methoxy-N,N-dimethyltryptamine] ) = 66.5

====

Test: serum pharmacokinetics in Tg-CYP2D6
Assay type: in vivo, mice
Conditions: Tg-CYP2D6 (CYP2D6-humanized), mouse, serum, ip, 2 mg/kg
parameter: half-life (min)
One number for each entry, in min.

Reported half-life ( CN(C)CCc1c[nH]c2ccc(O)cc12 [Bufotenine, 5-hydroxy-N,N-dimethyltryptamine] ) = 20.7

Could you now consider this next compound?
Reported half-life ( COc1ccc2[nH]cc(CCN(C)C)c2c1 ) = 14.7

====

Exercise: state measured Tmax for each of the compounds provided.
Assay: serum pharmacokinetics in wild-type FVB/N mice
Format: in vivo
Conditions: FVB/N (wild-type), mouse, serum, ip, 20 mg/kg
Quick note: unit goes after the number.

Reported Tmax ( CN(C)CCc1c[nH]c2ccc(O)cc12 [Bufotenine, 5-hydroxy-N,N-dimethyltryptamine] ) = 21.3 min

Could you now consider this next compound?
Reported Tmax ( COc1ccc2[nH]cc(CCN(C)C)c2c1 ) = 7.5 min

====

Experiment: 5-MeO-DMT depletion and bufotenine formation in human CYP2D6 EM hepatocytes
Settings: human, CYP2D6 EM hepatocytes, In vitro T1/2, EM hepatocytes 1; 5-MeO-DMT alone, 2 µM
parameter: half-life at 2 µM
Quick note: unit goes after the number.

Reported half-life at 2 µM ( COc1ccc2[nH]cc(CCN(C)C)c2c1 [5-MeO-DMT, 5-Methoxy-N,N-dimethyltryptamine] ) = 32.4 min

====

Experiment: 5-MeO-DMT depletion and bufotenine formation in human CYP2D6 EM hepatocytes
Conditions: human, human CYP2D6 EM (extensive metabolizer) hepatocytes, In vitro CLint, EM hepatocytes 5; 5-MeO-DMT alone, 2 µM
parameter: hepatocyte CLint at 2 µM
Quick note: unit goes after the number.

Reported hepatocyte CLint at 2 µM ( COc1ccc2[nH]cc(CCN(C)C)c2c1 [5-MeO-DMT, 5-Methoxy-N,N-dimethyltryptamine] ) = 87.4 µL/min/1e6 cells

====

Assay: 5-MeO-DMT depletion and bufotenine formation in human CYP2D6 PM hepatocytes
Details: human, human CYP2D6 PM (poor metabolizer) hepatocytes, In vitro CLint, PM hepatocytes 3; 5-MeO-DMT alone, 2 µM
parameter: hepatocyte CLint at 2 µM (µL/min/1e6 cells)
Numbers only, in µL/min/1e6 cells.

Reported hepatocyte CLint at 2 µM ( COc1ccc2[nH]cc(CCN(C)C)c2c1 [5-MeO-DMT, 5-Methoxy-N,N-dimethyltryptamine] ) = 88

====

Biological target: CYP2D6.10 (Homo sapiens, UniProt P10635, P34S/S486T)
Assay: bufotenine production from 5-MeO-DMT by recombinant CYP2D6.10
Type: in vitro ADME
Conditions: human, recombinant CYP2D6.10 reconstituted with P450 reductase, pH 7.4
parameter: Km at 20 min (µM)
Give bare numbers, in µM.

Reported Km at 20 min ( COc1ccc2[nH]cc(CCN(C)C)c2c1 [5-MeO-DMT, 5-Methoxy-N,N-dimethyltryptamine] ) = 947

====

Assay: serum pharmacokinetics in Tg-CYP2D6
Type: in vivo, mice
Conditions: Tg-CYP2D6 (CYP2D6-humanized), mouse, serum, ip, 2 mg/kg
parameter: Cmax (nM)
Give bare numbers, in nM.

Reported Cmax ( COc1ccc2[nH]cc(CCN(C)C)c2c1 ) = 1190

Continuing:
Reported Cmax ( CN(C)CCc1c[nH]c2ccc(O)cc12 [Bufotenine, 5-hydroxy-N,N-dimethyltryptamine] ) = 53

====

Assay: serum pharmacokinetics in wild-type FVB/N mice
Assay type: in vivo
Settings: FVB/N (wild-type), mouse, serum, ip, 2 mg/kg
Exercise: state measured Cmax for each of the compounds provided.
Answers are plain numbers, in nM.

Reported Cmax ( CN(C)CCc1c[nH]c2ccc(O)cc12 [Bufotenine, 5-hydroxy-N,N-dimethyltryptamine] ) = 51.4

Could you now consider this next compound?
Reported Cmax ( COc1ccc2[nH]cc(CCN(C)C)c2c1 ) = 1360

====

Assay: serum pharmacokinetics in wild-type FVB/N mice
Assay type: in vivo
Details: wild-type mice; 2 mg/kg 5-MeO-DMT alone i.p.
parameter: clearance (mL/min/kg)
Numbers only, in mL/min/kg.

Reported clearance ( COc1ccc2[nH]cc(CCN(C)C)c2c1 [5-MeO-DMT, 5-Methoxy-N,N-dimethyltryptamine] ) = 370

====

Assay: serum pharmacokinetics in Tg-CYP2D6
Type: in vivo, mice
Details: Tg-CYP2D6 (CYP2D6-humanized), mouse, serum, ip, 20 mg/kg
parameter: MRT
Quick note: unit goes after the number.

Reported MRT ( CN(C)CCc1c[nH]c2ccc(O)cc12 [Bufotenine, 5-hydroxy-N,N-dimethyltryptamine] ) = 52.8 min

Could you now consider this next compound?
Reported MRT ( COc1ccc2[nH]cc(CCN(C)C)c2c1 ) = 23.1 min

====

Assay: serum pharmacokinetics in Tg-CYP2D6
Type: in vivo, mice
Conditions: Tg-CYP2D6 (CYP2D6-humanized), mouse, serum, ip, 20 mg/kg
parameter: Cmax (µM)
Numbers only, in µM.

Reported Cmax ( COc1ccc2[nH]cc(CCN(C)C)c2c1 ) = 18.7

====

Test: serum pharmacokinetics in Tg-CYP2D6
Type: in vivo, mice
Conditions: Tg-CYP2D6 (CYP2D6-humanized), mouse, serum, ip, 20 mg/kg
Exercise: state measured half-life for each of the molecules provided.
Quick note: unit goes after the number.

Reported half-life ( COc1ccc2[nH]cc(CCN(C)C)c2c1 ) = 13.4 min

Could you now consider this next molecule?
Reported half-life ( CN(C)CCc1c[nH]c2ccc(O)cc12 [Bufotenine, 5-hydroxy-N,N-dimethyltryptamine] ) = 18.5 min

====

Exercise: state measured Tmax for each of the compounds provided.
Assay: serum pharmacokinetics in Tg-CYP2D6
Format: in vivo, mice
Details: Tg-CYP2D6 (CYP2D6-humanized), mouse, serum, ip, 2 mg/kg
One number for each entry, in min.

Reported Tmax ( COc1ccc2[nH]cc(CCN(C)C)c2c1 ) = 5.8

Continuing:
Reported Tmax ( CN(C)CCc1c[nH]c2ccc(O)cc12 [Bufotenine, 5-hydroxy-N,N-dimethyltryptamine] ) = 8.8

====

Experiment: 5-MeO-DMT depletion and bufotenine formation in human CYP2D6 EM hepatocytes
Conditions: human, human CYP2D6 EM (extensive metabolizer) hepatocytes, In vitro CLint, EM hepatocytes 3; 5-MeO-DMT alone, 2 µM
parameter: hepatocyte CLint at 2 µM
Quick note: unit goes after the number.

Reported hepatocyte CLint at 2 µM ( COc1ccc2[nH]cc(CCN(C)C)c2c1 [5-MeO-DMT, 5-Methoxy-N,N-dimethyltryptamine] ) = 141 µL/min/1e6 cells

====

Assay: 5-MeO-DMT depletion and bufotenine formation in human CYP2D6 EM hepatocytes
Conditions: human, human CYP2D6 EM (extensive metabolizer) hepatocytes, In vitro CLint, EM hepatocytes 4; 5-MeO-DMT alone, 2 µM
parameter: hepatocyte CLint at 2 µM

Reported hepatocyte CLint at 2 µM ( COc1ccc2[nH]cc(CCN(C)C)c2c1 ) = 51 µL/min/1e6 cells
